- recorded.conditions: in ethanol, 308.35 K
endpoint: solubility (mole fraction)
The reply should be a number, written without any unit.

Q: Tell me its solubility (mole fraction) given "O=c1c2ccccc2sc2ccc(Cl)cc12" as the entry.
Ans: 0.00122

---

- recorded.conditions: in n-propanol, 300.15 K
endpoint: solubility (mole fraction)
The reply should be a number, written without any unit.

Q: Tell me its solubility (mole fraction) given "O=c1c2ccccc2sc2ccc(Cl)cc12" as the entry.
Ans: 0.000896

---

- recorded.conditions: in n-propanol, 305.55 K
endpoint: solubility (mole fraction)
The reply should be a number, written without any unit.

Q: Tell me its solubility (mole fraction) given "O=c1c2ccccc2sc2ccc(Cl)cc12" as the entry.
Ans: 0.00106
